Each record here notes measured IC50.
Tested on: Fusarium oxysporum
assayOverview: Antimicrobial activity against Fusarium oxysporum NCL5 by broth microdilution method
Format: functional, organism-based

| compound | unitsSymbol | IC50 |
| --- | --- | --- |
| C#CCOC(=O)CC[C@@H](C)[C@H]1CC[C@H]2[C@@H]3[C@H](O)C[C@@H]4C[C@H](O)CC[C@]4(C)[C@H]3C[C@H](O)[C@]12C | µg/mL | 128 |
| C#CCOC(=O)CC[C@@H](C)[C@H]1CC[C@H]2[C@@H]3CC[C@@H]4C[C@H](O)CC[C@]4(C)[C@H]3C[C@H](O)[C@]12C | µg/mL | 64 |
| C[C@@H]1[C@H](O)[C@@H](C)/C=C/C=C/C=C/C=C/C=C/C=C/C=C/[C@H](O[C@@H]2O[C@H](C)[C@@H](O)[C@H](N)[C@@H]2O)C[C@@H]2O[C@](O)(C[C@@H](O)C[C@@H](O)[C@H](O)CC[C@@H](O)C[C@@H](O)CC(=O)O[C@H]1C)C[C@H](O)[C@H]2C(=O)O (stereo in doubt) | µg/mL | 8 |
| OC(Cn1cncn1)(Cn1cncn1)c1ccc(F)cc1F | µg/mL | 4 |
| COc1ccc(N2C(=O)C(N=[N+]=[N-])C2c2ccccc2)cc1 (racemic) | µg/mL | 64 |
| COc1ccc(N2C(=O)C(N=[N+]=[N-])C2c2ccc(Cl)cc2)cc1 (racemic) | µg/mL | 64 |
| C#CCNC(=O)CC[C@@H](C)[C@H]1CC[C@H]2[C@@H]3CC[C@@H]4C[C@H](O)CC[C@]4(C)[C@H]3C[C@H](O)[C@]12C | µg/mL | 64 |
| C#CCNC(=O)CC[C@@H](C)[C@H]1CC[C@H]2[C@@H]3[C@H](O)C[C@@H]4C[C@H](O)CC[C@]4(C)[C@H]3C[C@H](O)[C@]12C | µg/mL | 128 |
